Listed variants paired with reported self-cleavage kobs at 640 uM GlcN6P
B1: glmS ribozyme (parent)
chain: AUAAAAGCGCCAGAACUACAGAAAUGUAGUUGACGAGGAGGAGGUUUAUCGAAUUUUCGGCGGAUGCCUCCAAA

- Variants of: B1
- testProtocol: self-cleavage kobs at 640 uM GlcN6P; higher = faster cleavage; RNA array
- conditionLabel: with glucosamine-6-phosphate
Variants at the floor of the assay were thinned out.
Kindly answer with a numeric value in s⁻¹, unit omitted.

U31G A53C | 0.000646
C71G | 0.000926
C11G C58G C70U | 8.61e-05
U30A C70U | 0.000765
G40A U54C | 0.00211

## Input Provide one value: measured self-cleavage kobs at 640 uM GlcN6P of U57A U69G
## Output 5.15e-05

## Input Provide one value: measured self-cleavage kobs at 640 uM GlcN6P of "U69C"
## Output 0.00268

## Input Provide one value: measured self-cleavage kobs at 640 uM GlcN6P of U47C U55C
## Output 0.00134

## Input Provide one value: measured self-cleavage kobs at 640 uM GlcN6P of A12G U54G
## Output 0.000179
